B1: library; a variant is named by its letters at N, in order (parent)
chain: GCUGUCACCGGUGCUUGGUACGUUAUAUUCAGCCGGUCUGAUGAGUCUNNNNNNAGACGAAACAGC

Variants of: B1
Assay: FACS-Seq fitted mean relative fluorescence mCherry/BFP with ligand (log10 relative fluorescence); HEK293T overexpressing SLC46A1; ligand concentration (+) FACS-Seq: 6 mM; higher = higher reporter protein expression
Details: with (6R,S)-folinic acid; ligand present: yes
assay metric: FACS-Seq fitted mean (log10)
API doc: respond with a numeric literal and nothing else, no unit.

Ask | Tell me measured FACS-Seq fitted mean (log10) for UACACG please.
Reply | 0.348

Ask | Indicate its recorded FACS-Seq fitted mean (log10); the variant in question is AAGAUG
Reply | 0.235

Ask | Provide only the value of recorded FACS-Seq fitted mean (log10) for UACAAG
Reply | 0.813

Ask | Specify measured FACS-Seq fitted mean (log10) for CUAUUG .
Reply | 0.316

Ask | Quickly give me recorded FACS-Seq fitted mean (log10) for GGUUAG
Reply | 0.245

Ask | Return value of FACS-Seq fitted mean (log10) for input ACAGCG , no commentary.
Reply | 0.411

Ask | Determine from records and report FACS-Seq fitted mean (log10) for GACGAG
Reply | 0.319

Ask | Give FACS-Seq fitted mean (log10) for GACACA
Reply | 0.656

Ask | Give me measured FACS-Seq fitted mean (log10), please, for this variant: GGGUAC
Reply | 0.245

Ask | Complete the entry with FACS-Seq fitted mean (log10) for CCAAGU
Reply | 0.036

Ask | Please look at this variant and report its FACS-Seq fitted mean (log10): AGGCUC
Reply | -0.123

Ask | Answer with reported FACS-Seq fitted mean (log10) of UUAUUG
Reply | 0.551

Ask | Let me know recorded FACS-Seq fitted mean (log10) for UGUAAA , thanks.
Reply | 0.761

Ask | Given UGUCGU , respond with its FACS-Seq fitted mean (log10).
Reply | 0.267

Ask | Please supply the value of reported FACS-Seq fitted mean (log10) for the item GUGACC
Reply | 0.585
